B1: SPRY1 (parent)
chain: WIHRPGCRCKNSNTVYCKLESCPS

Variants of: B1
Assay: protein stability index of a GFP-peptide fusion (GPS, HEK-293T) (PSI 1-6); higher = more stable;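 note: lentivirally expressed fusions sorted by FACS into six bins by GFP to DsRed ratio, PSI derived from sequencing read proportions per bin multiplied by bin number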
Conditions: c terminus: a fixed tail appended
protein stability index reference
API doc: respond with a numeric literal and nothing else, no unit.

Illustrative cases are given below, each with its answer.
QUERY: Hello, please tell me recorded protein stability index for this one: `C22T`
RESULT: 2.07

QUERY: Please give the documented protein stability index of `S21G`
RESULT: 2.22

QUERY: Give protein stability index for `R4G`
RESULT: 3.95

QUERY: State its protein stability index: `G6Q`
RESULT: 2.16

Now consider the entry below.
QUERY: Consider the variant `S24N` . State its measured protein stability index.
RESULT: 2.1
